Experiment: qHTS Assay for Lipid Storage Modulators in Drosophila S3 Cells
Conditions: BODIPY lipid droplet fluorescence, 18-24 h, cells fed with added oleic acid; series mostly up to 46.1 µM
Source text: NIH Molecular Libraries Probe Production Centers Network [MLPCN] NIH Chemical Genomics Center [NCGC] […] Triacsin C (Sigma-Aldrich T-4540), an inhibitor of long-chain fatty acyl CoA synthetase that blocks synthesis of triglycerides, was used as a positive control for lipid under-storage. […] Fluorescence was detected by excitation of the fluorophores with a 488-nm laser on an Acumen Explorer (TTP Lab Tech). […] Cells were detected using channel 3 (575-640 nm) with 5-um width and 100-um depth filters. […]
Out of some 320,000 compounds screened, about 2,100 (0.66%) were called active. Inconclusive results (about 53%) are left out. Calls follow the shape of the dose curve; as a rule, active = well fitted inhibition curve with a large enough effect in the signal ratio, with a control signal flat (not every such curve was filed as active); inconclusive = small, poorly fitted or top-dose-only effect, or effect the other way, or a change in a side signal; inactive = flat fitted curve, though single readings scatter; the % refers to the signal ratio. Shown is part of a subset that was picked to be rich in actives.
Outcomes: active, inactive

| molecule | cat |
| --- | --- |
| O=C(Cn1nnc2ccccc21)OCC(=O)c1ccccc1 | inactive |
| O=C1Nc2cc(C(=O)N3CCc4ccccc4C3)ccc2S/C1=C\c1ccccc1 | active |
| CCCC(=O)Nc1nc(C(=O)OCC)cs1 | inactive |
| CCCCc1nc2ccccc2c(=O)n1NC(=O)c1c(O)c2ccccc2n(C)c1=O | inactive |
| O=C(Cn1nnc2ccccc21)c1ccc([N+](=O)[O-])cc1 | inactive |
| COCCCNC(=O)c1cccs1 | inactive |
| CCOCCCNC(=O)c1cccs1 | active |
| CC(=O)c1nn(-c2cccc(Br)c2)cc1C(=O)c1ccc2ccccc2c1 | active |
| CCOC(=O)c1csc(NC(=O)c2cccs2)n1 | active |
| O=C(NC(Cc1ccccc1)C(=O)O)c1ccco1 (configuration not stated) | inactive |
| CC(=O)Nc1ccc(OCCCNC(=O)c2c(-c3ccccc3)noc2C)cc1 | inactive |
| CC(=O)c1nn(-c2ccccc2)cc1C(=O)c1cccc(Br)c1 | inactive |

----------
Assay: qHTS Assay for Lipid Storage Modulators in Drosophila S3 Cells
Conditions: BODIPY lipid droplet fluorescence, 18-24 h, cells fed with added oleic acid; series mostly up to 46.1 µM
Excerpt: NIH Molecular Libraries Probe Production Centers Network [MLPCN] NIH Chemical Genomics Center [NCGC] […] Triacsin C (Sigma-Aldrich T-4540), an inhibitor of long-chain fatty acyl CoA synthetase that blocks synthesis of triglycerides, was used as a positive control for lipid under-storage. […] Fluorescence was detected by excitation of the fluorophores with a 488-nm laser on an Acumen Explorer (TTP Lab Tech). […] Cells were detected using channel 3 (575-640 nm) with 5-um width and 100-um depth filters. […]
The campaign covered roughly 320,000 compounds. About 2,100 (0.66%) were called active. Not shown: some 53% with an inconclusive outcome. Calls follow the shape of the dose curve; as a rule, active = well fitted inhibition curve with a large enough effect in the signal ratio, with a control signal flat (not every such curve was filed as active); inconclusive = small, poorly fitted or top-dose-only effect, or effect the other way, or a change in a side signal; inactive = flat fitted curve, though single readings scatter; the % refers to the signal ratio. This is one part of a sample in which actives are shown more often than they occur.
Outcomes: active, inactive

| compound | cat |
| --- | --- |
| COc1cccc(CC(NC(C)=O)C(=O)NC2CCN(C(=O)c3ccc(Cl)cc3)CC2)c1 (stereo not drawn) | active |
| CCc1cccc(CC)c1NC(=O)C1SC(=Nc2ccccc2C)C(c2nc3ccccc3s2)=C1N (stereo not drawn) | inactive |
| O=C(CN1C(=O)NC2(CCc3ccccc32)C1=O)c1ccc(Br)s1 (stereo not drawn) | active |
| CC(C)=CCN1CCN(Cc2cnc(N3CCOCC3)s2)CC1CCO (stereo not drawn) | active |
| O=C(CCN1CCN(CCO)CC1)Nc1ccc(Br)cc1 | inactive |
| O=C(CCN1CCN(CCO)CC1)Nc1ccc(F)c(F)c1 | active |
| N#Cc1c(Cl)nc(SCc2ccccc2)nc1-c1ccccc1 | inactive |
| O=C(CN1C(=O)NC2(CCc3ccccc32)C1=O)c1ccc(Br)cc1 (stereo not drawn) | inactive |
| COc1ccc(CC(NC(C)=O)C(=O)NC2CCN(C(=O)c3cccc(Cl)c3)CC2)cc1OC (stereo not drawn) | inactive |
| O=C(NC1CCN(C(=O)NCc2ccccc2)CC1)c1cccc(F)c1 | active |
| COc1ccc(NC(=O)CCN2CCCCCC2)cc1 | inactive |
| Cc1ccc(NC(=O)Nc2nc3ccc(S(C)(=O)=O)cc3s2)cc1 | inactive |
| CC(Sc1nc(N2CCOCC2)nc(N2CCOCC2)n1)C(=O)Nc1ccccc1 (stereo not drawn) | inactive |
| O=C(CCN1CCCC1)Nc1cccc(Br)c1 | inactive |
| CC(C)CN1CCN(Cc2cnc(N3CCOCC3)s2)CC1CCO (stereo not drawn) | inactive |
| CS(=O)(=O)c1ccc2nc(NC(=O)Nc3cccc(Cl)c3)sc2c1 | active |
| CCOc1nc(SC(C(C)=O)C(=O)Nc2ccccc2)nc(N(C)C)n1 (stereo not drawn) | inactive |
| Cc1coc(=N)n1CC(=O)c1ccc(Cl)cc1 | inactive |
| O=C(CN1CCCCCC1)Nc1cccc(NC(=O)CN2CCCCCC2)c1 | inactive |
| Cc1ccc(CN2CCN(Cc3cnc(N4CCOCC4)s3)CC2CCO)cc1 (stereo not drawn) | inactive |
| CCOC(=O)c1cc(NC(=O)CN2CCCC2)cc(C(=O)OCC)c1 | active |
| O=C(CN1C(=O)NC2(CCc3ccccc32)C1=O)c1ccccc1 (stereo not drawn) | inactive |
| O=C1CN(C(=O)COC(=O)Cc2ccsc2)c2ccccc2N1 | inactive |

----------
Assay: qHTS Assay for Lipid Storage Modulators in Drosophila S3 Cells
Conditions: BODIPY lipid droplet fluorescence, 18-24 h, cells fed with added oleic acid; series mostly up to 46.1 µM
About 2,100 (0.66%) of roughly 320,000 compounds were called active. Inconclusive results (about 53%) are left out. The call rests on the fitted dose curve; in most records, active means well fitted inhibition curve with a large enough effect in the signal ratio, with a control signal flat (not every such curve was filed as active); inconclusive means small, poorly fitted or top-dose-only effect, or effect the other way, or a change in a side signal; inactive means flat fitted curve, though single readings scatter; the % refers to the signal ratio. This is one part of a sample in which actives are shown more often than they occur.
Outcomes: 1.0 = active, 0.0 = inactive

| compound | cat |
| --- | --- |
| Cc1nc(SCC(=O)NC(=O)NCCC(C)C)c2c(-c3cccs3)csc2n1 | 0.0 |
| COc1cc(C(=O)OCC(=O)N2CCC(Cc3ccccc3)CC2)cc(OC)c1OC | 0.0 |
| COc1ccc(NC(=O)NC2CCCCCCC2)c(OC)c1 | 0.0 |
| COc1ccc(OCC(=O)NCCc2c[nH]c3ccccc23)cc1 | 0.0 |
| COc1ccc(N(CC(=O)N/N=C/c2cccnc2)S(=O)(=O)c2ccc(C)cc2)cc1OC | 0.0 |
| COc1ccc(Br)cc1S(=O)(=O)NCCCN1CCOCC1 | 0.0 |
| Cc1ccc(/C=N/n2c(-c3ccccc3)n[nH]c2=S)cc1 | 0.0 |
| COCCCNC(=O)COc1cc2c(c3oc(=O)c(C)c(C)c13)CCC(C)(C)O2 | 0.0 |
| COCC1CCN(C(=O)c2ccc(OC)c(OC3CCN(C(C)C)CC3)c2)CC1 | 0.0 |
| Cn1c(Cn2c(=O)sc3ccccc32)nnc1SCC(N)=O | 0.0 |
| CCCNC(=O)c1cccc(Br)c1 | 0.0 |
| COc1ccc(-n2c(=S)[nH]c3cc(C(=O)Nc4ccc(OC)c(OC)c4)ccc3c2=O)cc1 | 0.0 |
| COC(=O)c1ccc(CSc2nc3ccccc3c(=O)n2N)cc1 | 0.0 |
| Brc1ccc(CSc2nnc(-c3ccco3)o2)cc1 | 0.0 |
| Cc1cc(C)c(-c2cc(C(=O)Nc3cc(C)ccc3C)[nH]n2)c(O)c1 | 0.0 |
| CC(=O)Nc1ccc(OCC(=O)N2CCC(Cc3ccccc3)CC2)cc1 | 0.0 |
| COc1ccc(OC)c(NC(=O)c2cc(-c3ccc(C)cc3O)n[nH]2)c1 | 0.0 |
| CC(=O)c1ccc(OC(C)C)c(CC(C(N)=O)C(N)=O)c1 | 1.0 |
| CC(=O)Nc1ccc(C(=O)OCC(=O)N2CCC(Cc3ccccc3)CC2)cc1 | 1.0 |
| COC(C(=O)Nc1ccnn1C1CCN(Cc2nccs2)CC1)c1ccccc1 (stereo not given) | 1.0 |
| O=C(COC(=O)C1CCN(c2ccc(C(F)(F)F)cn2)CC1)NCc1ccc(Cl)cc1Cl | 0.0 |
| O=C(Cn1nc2ccccc2n1)N/N=C/c1ccc(F)cc1 | 0.0 |
| Cc1ccccc1NC(=O)NC1(C(=O)NCCCN2CCOCC2)CCCCC1 | 0.0 |
| O=C(O)c1ccc(CSc2nnc(-c3ccco3)o2)cc1 | 1.0 |
| COc1ccc(OC)c(NC(=O)c2cc(-c3c(C)cc(C)cc3O)n[nH]2)c1 | 1.0 |
| Cc1csc(Sc2ccc([N+](=O)[O-])cc2C(=O)OCC(=O)NC(=O)NC(C)(C)C)n1 | 0.0 |
| C(=NC12CN3CN(CN(C3)C1)C2)c1ccc2c(c1)OCO2 | 1.0 |
| Cn1c(C(=O)NCc2ccccc2)cc2oc3ccccc3c21 | 0.0 |
| O=c1[nH]c(CN2CCN(c3ccc(F)cc3)CC2)nc2ccccc12 | 0.0 |
| CC(C)Sc1nc2c(c(=O)[nH]c(=O)n2C)n1Cc1ccccc1 | 0.0 |
| CCc1nnc(NC(=O)CCC(=O)NCc2ccc(C)cc2)s1 | 0.0 |
| O=C(CCl)N1N=C(c2ccco2)CC1c1cccs1 (stereo not given) | 1.0 |
| Cn1c(C(=O)NCC2CCCO2)cc2oc3ccccc3c21 (stereo not given) | 1.0 |
| CN(C)CCCNS(=O)(=O)c1ccc(N2CCN(Cc3ccc4c(c3)OCO4)CC2)c([N+](=O)[O-])c1 | 0.0 |
| Cc1cc(C)c(O)c(-c2cc(C(=O)Nc3cccnc3)[nH]n2)c1 | 0.0 |
| O=C(O)C1CCC(=O)N1Cc1ccccc1Cl (stereo not given) | 0.0 |
| Cn1c(C(=O)NCC2CCCO2)cc2c(=O)[nH]c3ccccc3c21 (stereo not given) | 0.0 |
| Cc1c(C(=O)N2CCCCCC2)c(S(=O)(=O)Nc2cccc(F)c2)c(C)n1C | 0.0 |
| O=C(c1ccccc1)N1N=C(c2ccco2)CC1c1cccs1 (stereo not given) | 0.0 |
| CC(C)(C)C(=O)CC1(O)C(=O)N(Cc2ccc(Cl)cc2)c2ccccc21 (stereo not given) | 0.0 |
| Cc1cnc(NC(=O)CCNC(=O)c2ccccc2Cl)s1 | 0.0 |
| O=C(OC1CCOC1=O)c1cc(-c2cccc(Br)c2)nc2ccccc12 (stereo not given) | 0.0 |
| COc1ccc(CCN(Cc2cc3ccc(C)cc3[nH]c2=O)C(C)=O)cc1OC | 0.0 |
| Cc1ccc2c(c1)N(CC(=O)NCCC1=CCCCC1)C(=O)c1cccnc1O2 | 0.0 |
| CNC(=O)C1CCC(=O)N1Cc1ccccc1Cl (stereo not given) | 1.0 |
